This listing pairs compounds with measured log10 of IC50.
biological target: Calcium/calmodulin-dependent protein kinase type II subunit delta (Homo sapiens); assay: Inhibition of CaMK2delta
In our notation, the value equals log10 of IC50 in µM.

NCCCn1cc(C2=C(c3cccnc3)C(=O)NC2=O)c2ccccc21	-0.27

Please find the next compound below.
Record summary for `Cc1cccc(C2=C(c3cn(CCCN)c4ccccc34)C(=O)NC2=O)c1` : reported log10 of IC50 = -0.55

* * *

Property: pIC50; scope: individual molecules
biological target: Calcium/calmodulin-dependent protein kinase type II subunit delta (Homo sapiens, UniProt Q13557); test: Inhibition of CaMK2delta
Sequence (Q13557 whole entry): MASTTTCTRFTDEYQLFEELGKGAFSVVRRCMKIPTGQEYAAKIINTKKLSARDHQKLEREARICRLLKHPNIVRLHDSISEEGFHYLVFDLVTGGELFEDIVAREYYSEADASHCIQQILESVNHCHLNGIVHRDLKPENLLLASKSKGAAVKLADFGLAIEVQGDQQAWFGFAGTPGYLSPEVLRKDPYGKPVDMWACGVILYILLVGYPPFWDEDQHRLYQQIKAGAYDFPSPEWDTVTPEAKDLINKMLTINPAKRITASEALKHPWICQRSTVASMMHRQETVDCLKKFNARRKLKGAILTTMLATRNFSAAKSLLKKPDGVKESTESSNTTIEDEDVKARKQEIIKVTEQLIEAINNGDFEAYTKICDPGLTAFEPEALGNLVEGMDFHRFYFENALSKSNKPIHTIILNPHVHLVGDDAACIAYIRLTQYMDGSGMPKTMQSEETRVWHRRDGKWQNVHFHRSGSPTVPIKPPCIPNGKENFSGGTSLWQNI
pIC50 is defined as minus the log10 of a concentration measured in mol/L.

NCCCn1cc(C2=C(c3cccc(Oc4ccccc4)c3)C(=O)NC2=O)c2ccccc21	5.77
NCCCn1cc(C2=C(c3ccnc4ccccc34)C(=O)NC2=O)c2ccccc21	6.20
NCCCn1cc(C2=C(c3ccc4ccccc4c3)C(=O)NC2=O)c2ccccc21	6.30

Please turn your attention to the following entry.
Kindly note the recorded pIC50 for `NCCCn1cc(C2=C(c3cccc4ccccc34)C(=O)NC2=O)c2ccccc21` , which is 6.54

* * *

Reported pIC50 values for a set of compounds
biological target: Calcium/calmodulin-dependent protein kinase type II subunit delta (Homo sapiens, UniProt Q13557); assay: Inhibition of CaMK2delta
# pIC50: negative log10 of molar concentration; output just the value

// solved cases for pIC50 follow
NCCCn1cc(C2=C(c3cccs3)C(=O)NC2=O)c2ccccc21	5.92
NCCCn1cc(C2=C(c3ccncc3)C(=O)NC2=O)c2ccccc21	5.80
Cc1[nH]c2ccccc2c1C1=C(c2cn(CCCNC(=O)OC(C)(C)C)c3ccccc23)C(=O)NC1=O	5.12
NCCCn1cc(C2=C(c3ccco3)C(=O)NC2=O)c2ccccc21	5.83
CN1C(=O)C(c2ccccc2)=C(c2cn(CCCN)c3ccccc23)C1=O	4.82

The reported pIC50 of the compound `NCCCn1cc(C2=C(c3cccc(-c4ccccc4)c3)C(=O)NC2=O)c2ccccc21` was 5.88

Input `CN1C(=O)C(c2csc3ccccc23)=C(c2cn(CCCN)c3ccccc23)C1=O` . Output pIC50: 5.63

// recorded pIC50 for `NCCCn1cc(C2=C(c3ccccn3)C(=O)NC2=O)c2ccccc21` : 5.80
